B1: TNNI2 (parent)
chain: DWRKNIEEKSGMEGRKKMFESES

Variants of: B1
Assay: protein stability index of a GFP-peptide fusion (GPS, HEK-293T) (PSI 1-6); higher = more stable;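 also: lentivirally expressed fusions sorted by FACS into six bins by GFP to DsRed ratio, PSI derived from sequencing read proportions per bin multiplied by bin number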
Settings: c terminus: native
Record form. Attribute: protein stability index. Fill in for each entry.
Numbers only.

Study these solved cases before continuing.
M12V : 2.39
K16M : 1.92
R3I : 2.19
E7P : 2.85

Quick batch: protein stability index for everything below.
1. K17Y
2. E13P

1. 2.6
2. 2.34
